# Test system: Plasmodium falciparum
# procedure.summary: GSK_TCMDC: Inhibition of Plasmodium falciparum 3D7 in whole erythrocytes, using parasite LDH activity as an index of growth.
# Assay type: functional, organism-based
# measurement.setup: Plasmodium falciparum, 3D7
observable: XC50 (µM)
Write the value in µM as a bare number.

> print(dat)
                                   molecule  result.unit  measured.value
1  CN1CCc2ccc(NC(=O)Nc3cccc(C(=O)c4ccccc4)c3)cc2C1           µM           0.917

Form: Entry = COC(=O)c1ccc(CC(C)NCC(O)c2ccc(Cl)c(Cl)c2)cc1 (stereo not given) | System = Plasmodium falciparum | XC50 = ____
1

Query for Plasmodium falciparum: what XC50 does the record show for CC(=O)N(C)C1CCN(Cc2cccc(-c3ccc(-c4nc5cc(C(F)(F)F)ccc5[nH]4)cc3)c2)C1 (stereo not given) ?
0.563
